// provenance: patent US7915293B2

# System: E3 (His-APC11/APC2-"APC") (Homo sapiens, UniProt Q9NYG5+Q9UJX6)
# Sequence (Q9NYG5 whole entry): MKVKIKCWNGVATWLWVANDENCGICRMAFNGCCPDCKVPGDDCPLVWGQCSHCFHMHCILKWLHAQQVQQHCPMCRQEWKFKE
# Sequence (Q9UJX6 whole entry): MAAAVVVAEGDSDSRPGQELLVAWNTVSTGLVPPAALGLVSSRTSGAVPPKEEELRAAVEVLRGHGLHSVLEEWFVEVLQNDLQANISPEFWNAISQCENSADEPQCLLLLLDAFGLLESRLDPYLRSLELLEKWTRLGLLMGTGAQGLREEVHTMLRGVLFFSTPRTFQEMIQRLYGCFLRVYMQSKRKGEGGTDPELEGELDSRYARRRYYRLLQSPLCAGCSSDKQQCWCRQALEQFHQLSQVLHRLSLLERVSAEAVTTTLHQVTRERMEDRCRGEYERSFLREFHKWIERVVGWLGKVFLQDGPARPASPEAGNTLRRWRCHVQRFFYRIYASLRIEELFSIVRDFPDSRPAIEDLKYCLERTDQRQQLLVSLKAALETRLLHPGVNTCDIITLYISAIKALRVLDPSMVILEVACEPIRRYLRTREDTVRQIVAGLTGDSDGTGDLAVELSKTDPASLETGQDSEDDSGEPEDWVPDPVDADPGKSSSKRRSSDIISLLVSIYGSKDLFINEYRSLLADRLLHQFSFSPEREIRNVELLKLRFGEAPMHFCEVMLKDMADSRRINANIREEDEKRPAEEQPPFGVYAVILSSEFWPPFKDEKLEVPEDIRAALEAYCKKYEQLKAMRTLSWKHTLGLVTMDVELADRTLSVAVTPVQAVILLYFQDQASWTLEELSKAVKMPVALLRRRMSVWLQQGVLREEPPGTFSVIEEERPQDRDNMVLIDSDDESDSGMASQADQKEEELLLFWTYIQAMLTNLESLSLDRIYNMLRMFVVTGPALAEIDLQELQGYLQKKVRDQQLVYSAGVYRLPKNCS
# Test Details: Plate-based E3 ligase assay (APC FLAG), auto-ubiquitination
# Type: biochemical
# Parameters: key: “+” indicates that the compound exibits inhibitory activity; “−” indicates that low or no inhibitory activity was observed
# Condition Summary: 8 concentrations tested
Experimental Readout: APC Flag 8 pt

Use these answered entries as a reference point.
{"columns": ["Compound Structure", "APC Flag 8 pt"],
 "data": [
  ["O=[N+]([O-])c1ccc(Oc2ccc(S(=O)(=O)Nc3cc(C(F)(F)F)ccc3Cl)cc2Cl)c(C(F)(F)F)c1", "+"],
  ["N=C(NS(=O)(=O)c1cc(Cl)c(Oc2ccc([N+](=O)[O-])cc2)c(Cl)c1)c1ccncc1", "−"],
  ["Cc1c(Cl)cccc1S(=O)(=O)Nc1ccc(Oc2ccc([N+](=O)[O-])cc2)cc1", "+"],
  ["O=C(NCC1CC1)[C@@H]1CCCN1S(=O)(=O)c1cc(Cl)c(Oc2ccc([N+](=O)[O-])cc2Cl)c(Cl)c1", "−"],
  ["Cc1c(F)cccc1NS(=O)(=O)c1cc(Cl)c(Oc2ccc([N+](=O)[O-])cc2Cl)c(Cl)c1", "+"],
  ["O=[N+]([O-])c1cccc(Cl)c1Oc1ccc(S(=O)(=O)Nc2ccc(F)c(Cl)c2)cc1", "−"]
]}

Report APC Flag 8 pt for every entry below.
1. Cc1ccc(Cl)cc1NS(=O)(=O)c1cc(Cl)c(Oc2ccc([N+](=O)[O-])cc2Cl)c(Cl)c1
2. COc1ccc(CCNS(=O)(=O)c2cc(Cl)c(Oc3ccc([N+](=O)[O-])cc3Cl)c(Cl)c2)cc1
3. O=[N+]([O-])c1ccc(Oc2c(Cl)cc(S(=O)(=O)Nc3ccccc3-n3cccc3)cc2Cl)c(Cl)c1

+
+
+
